From: paper PMC9570838

test system: BaF3 cells with gatekeeper mutations (TRKA^F589L, TRKB^F663L, TRKC^F617L); test: BaF3 cell proliferation, summary over gatekeeper lines; details: Mus musculus, BaF3, read-out: IC50 in cells with gatekeeper mutations
pIC50: −log10 of the molar value.
Readings of pIC50 for the listed molecules

O=C(Nc1cnn2ccc(N3CCC[C@@H]3c3cc(F)ccc3F)nc12)N1CC[C@H](O)C1 [Larotrectinib]	< 6.37

Give the reported pIC50 for this molecule. Cc1c(C#Cc2cnc3cnc(-c4ccc(N)cc4)cn23)cccc1C(=O)Nc1cc(CN2CCN(C)CC2)cc(C(C)C)c1 [JND4135]
6.75 to 7.43
